The values you see were collected from patent US20230192890A1.

Here the recorded absorbance 490 nm/630 nm is given for each entry.
test target: full-length recombinant mouse PAD4 (mouse) (UniProt Q9Z183)
Sequence (Q9Z183 whole entry): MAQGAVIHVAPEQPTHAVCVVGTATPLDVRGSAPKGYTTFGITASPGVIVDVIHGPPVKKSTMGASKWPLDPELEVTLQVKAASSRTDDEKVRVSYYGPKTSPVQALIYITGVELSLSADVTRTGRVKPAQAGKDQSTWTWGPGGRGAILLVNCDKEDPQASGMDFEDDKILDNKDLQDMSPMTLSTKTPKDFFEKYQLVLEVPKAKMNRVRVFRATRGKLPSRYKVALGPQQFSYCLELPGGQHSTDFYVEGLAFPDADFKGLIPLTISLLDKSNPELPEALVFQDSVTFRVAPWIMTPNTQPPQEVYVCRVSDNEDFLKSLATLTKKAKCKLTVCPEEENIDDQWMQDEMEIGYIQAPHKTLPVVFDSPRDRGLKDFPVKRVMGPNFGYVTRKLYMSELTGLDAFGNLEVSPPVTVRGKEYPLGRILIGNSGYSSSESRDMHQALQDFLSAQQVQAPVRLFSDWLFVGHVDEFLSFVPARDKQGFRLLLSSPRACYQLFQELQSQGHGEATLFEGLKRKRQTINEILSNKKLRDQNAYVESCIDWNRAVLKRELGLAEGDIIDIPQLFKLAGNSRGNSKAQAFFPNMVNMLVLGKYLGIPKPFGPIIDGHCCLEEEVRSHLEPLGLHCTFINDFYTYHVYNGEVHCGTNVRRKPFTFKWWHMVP
assay protocol: ELISA, mouse PAD4 on plate, antibody 0.0009766 ug/mL

# binder, absorbance 490 nm/630 nm, OD
data = [
    ("A11 (antibody, IgG1, V domains shown) VH: AVTLDESGGGLQTPGGALSLVCKASGFDFSSYGMGWMRQAPGKGLEYVAAIRNDGSWTGYGAAVKGHATISRDNGQSTVRLQLNNLRAEDTGTYYCAKTTGSRGGSIDAWGHGTEVIVS VL: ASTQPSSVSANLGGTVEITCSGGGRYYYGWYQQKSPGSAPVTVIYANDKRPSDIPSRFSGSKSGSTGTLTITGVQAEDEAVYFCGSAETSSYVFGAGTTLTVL", 0.386),
    ("H7 (antibody, IgG1, V domains shown) VH: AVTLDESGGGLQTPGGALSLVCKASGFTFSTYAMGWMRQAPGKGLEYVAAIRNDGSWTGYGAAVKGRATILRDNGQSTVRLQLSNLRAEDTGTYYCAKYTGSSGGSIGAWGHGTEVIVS VL: ASTQPSSVSANPGGTVEITCSGGSGRYYYGWYQQKSPGSAPVTVIYSSTHRPSNIPSRFSGSKSGSTATLTITGVQAEDEAVYFCGTADSSSYVFGAGTTLTVL", 0.55),
]
